Consider the following molecules and their measured % Purity readings.
PROCEDURE_SUMMARY: Stability of crystal forms of salts under influencing factors (illumination, high temperature, high humidity)
Assay type: physicochemical
TEST_SETTINGS: 60° C., 30 days, open
Counter-ions that a name gives are not always drawn.
Report only the number, with the unit % understood.

Record excerpt, results attached:
Q) Please look up its % Purity: O=C(O)c1ccc2nc(CN3CCC(c4cccc5c4O[C@@H](c4ccc(Cl)cc4F)CO5)CC3)n(C[C@@H]3CCO3)c2c1 [Crystal form D of tromethamine salt]
A) 99.0

Q) Please look up its % Purity: O=C(O)c1ccc2nc(CN3CCC(c4cccc5c4O[C@@H](c4ccc(Cl)cc4F)CO5)CC3)n(C[C@@H]3CCO3)c2c1 [Crystal form I of hydrochloride salt]
A) 97.7

Q) Please look up its % Purity: O=C(O)c1ccc2nc(CN3CCC(c4cccc5c4O[C@@H](c4ccc(Cl)cc4F)CO5)CC3)n(C[C@@H]3CCO3)c2c1 [Crystal form I of tartrate salt]
A) 96.4

// switching to the query molecule
Q) Please look up its % Purity: O=C(O)c1ccc2nc(CN3CCC(c4cccc5c4O[C@@H](c4ccc(Cl)cc4F)CO5)CC3)n(C[C@@H]3CCO3)c2c1 [Crystal form E of tromethamine salt]
A) 81.8
